System: Fibroblast
protocolText: Multiplex assay against human fibroblast
Format: toxicity, cell-based
experimentalConditions: 24 h, 10 µM, compound concentration 10 uM, replicate 1
Consider the following molecules and their measured Population Apoptotic (%) readings.

molecule	testTarget	Population Apoptotic (%)
CCCC(CCC)C(=O)O	Fibroblast	50%
CC(=O)NCCc1c(Cc2ccccc2)[nH]c2ccccc12	Fibroblast	47%
O=C(NCC(=O)N1CC[C@H](N[C@H]2CC[C@@](O)(c3ccc(-c4ncccn4)cn3)CC2)C1)c1cccc(C(F)(F)F)c1	Fibroblast	36%
O=C1COc2nccc(-c3ccccc3F)c2CN1Cc1cc(C(F)(F)F)cc(C(F)(F)F)c1	Fibroblast	66%
c1cc(OCCCN2CCCCC2)ccc1CN1CCCCC1	Fibroblast	60%
CCCn1c(=O)c2[nH]c(C3CCCC3)nc2n(CCC)c1=O	Fibroblast	63%
COc1cc(NC(=O)CCN2CCC(OC(=O)Nc3ccccc3-c3ccccc3)CC2)c(Cl)cc1CNC[C@H](O)c1ccc(O)c2[nH]c(=O)ccc12	Fibroblast	51%
Cl.Clc1ccc2nsnc2c1NC1=NCCN1 [TIZANIDINE HYDROCHLORIDE]	Fibroblast	45%
Cc1ccc(/C(=C\CN2CCCC2)c2ccccn2)cc1	Fibroblast	47%
C[C@H](NC(=O)c1c(C(F)F)nn(C)c1Oc1cccc(C(F)(F)F)c1)c1ccc(C(=O)O)cc1	Fibroblast	60%
Cc1ccccc1C(=O)Nc1ccc(C(=O)N2CCCC(N(C)C)c3ccccc32)cc1.Cl (configuration not stated)	Fibroblast	58%
CC[C@H]1OC(=O)[C@H](C)[C@@H](O[C@H]2C[C@@](C)(OC)[C@@H](O)[C@H](C)O2)[C@H](C)[C@@H](O[C@@H]2O[C@H](C)C[C@H](N(C)C)[C@H]2O)[C@@]2(C)CC(C)=C(O2)[C@H](C)[C@@H](O)[C@]1(C)O	Fibroblast	52%
CNC[C@H](O)c1ccc(O)c(O)c1 [EPINEPHRINE]	Fibroblast	65%
O=C(NCCO)c1cccc(-c2cc(Nc3ccc(OC(F)(F)F)cc3)ncn2)c1	Fibroblast	50%
N#Cc1c(N)nc(SCc2csc(-c3ccc(Cl)cc3)n2)c(C#N)c1-c1ccc(OCCO)cc1	Fibroblast	38%
COc1cc(C(=O)N(CCCc2ccccc2)Cc2ccc(CC(=O)O)cc2)cc(OC)c1C	Fibroblast	55%
COc1ccc2c(c1)C(C(=O)N(Cc1ccc(N(C)C)cc1)c1ccc(C(C)C)cc1)CCC2.Cl (configuration not stated)	Fibroblast	50%

---

Test system: Fibroblast
protocolText: Multiplex assay against human fibroblast
Type: toxicity, cell-based
experimentalConditions: 48 h, 1 µM, compound concentration 1 uM, replicate 1
Listing: Total Cell Count of selected compounds

compound	Total Cell Count
N[C@@]1(C(=O)O)CO[C@H]2[C@H](C(=O)O)[C@H]21 [LY-379268]	156
CCCn1c(=O)c2[nH]c(C3CCCC3)nc2n(CCC)c1=O	182
Cc1ccc(C(C)(O)c2nc3ccccc3s2)c(C)c1 (stereo not given)	129
COc1cc(NC(=O)CCN2CCC(OC(=O)Nc3ccccc3-c3ccccc3)CC2)c(Cl)cc1CNC[C@H](O)c1ccc(O)c2[nH]c(=O)ccc12 [BATEFENTEROL]	185
CC(=O)NCCc1c(Cc2ccccc2)[nH]c2ccccc12 [LUZINDOLE]	134

---

Tested on: Fibroblast
protocolText: Multiplex assay against human fibroblast
Format: toxicity, cell-based
experimentalConditions: 24 h, 10 µM, compound concentration 10 uM, replicate 2
Response key: criterion met means Population Healthy Nuclei (%) >= 50%; criterion not met means Population Healthy Nuclei (%) < 50%.

compound	classification
CCNC1(C(N)=O)CCN(c2ncnc3c2nc(-c2ccccc2Cl)n3-c2ccc(Cl)cc2)CC1	criterion not met
CC(=O)NCCc1c(Cc2ccccc2)[nH]c2ccccc12	criterion met
O=C(O)c1cc2ccccc2c(Cc2c(O)c(C(=O)O)cc3ccccc23)c1O	criterion met
Cc1nc2ccc(Oc3ccc(F)cc3)cc2c(=O)n1C[C@H]1CCCN(C(C)C)C1.Cl	criterion met
COc1cc(NC(=O)CCN2CCC(OC(=O)Nc3ccccc3-c3ccccc3)CC2)c(Cl)cc1CNC[C@H](O)c1ccc(O)c2[nH]c(=O)ccc12	criterion not met
COc1ccc2c(c1)C(C(=O)N(Cc1ccc(N(C)C)cc1)c1ccc(C(C)C)cc1)CCC2.Cl (stereo not given)	criterion met
CC(C)(C)c1ccc(S(=O)(=O)Nc2ccc(Cl)cc2C(=O)c2cc[n+]([O-])cc2)cc1	criterion not met
COc1cc(C(=O)N(CCCc2ccccc2)Cc2ccc(CC(=O)O)cc2)cc(OC)c1C	criterion met
CN(C)c1ccnc2sc3c(=O)n(N4CCCCCC4)cnc3c12	criterion not met
CCCn1c(=O)c2[nH]c(C3CCCC3)nc2n(CCC)c1=O	criterion not met
Cc1ccccc1C(=O)Nc1ccc(C(=O)N2CCCC(N(C)C)c3ccccc32)cc1.Cl (stereo not given)	criterion not met
c1cc(OCCCN2CCCCC2)ccc1CN1CCCCC1	criterion not met
CSc1ccccc1N1CCN(CCCCCC(=O)NC2CCCc3ccccc32)CC1.Cl (stereo not given)	criterion met
N#Cc1c(N)nc(SCc2csc(-c3ccc(Cl)cc3)n2)c(C#N)c1-c1ccc(OCCO)cc1	criterion not met
CCCC(CCC)C(=O)O	criterion not met
C[C@@H]1C[C@H]2[C@@H]3CCC4=CC(=O)C=C[C@]4(C)[C@@]3(F)[C@@H](O)C[C@]2(C)[C@@]1(O)C(=O)CO	criterion not met
CN1CCN(c2nc3cc(C(F)(F)F)ccc3n3cccc23)CC1.O=C(O)/C=C\C(=O)O.O=C(O)/C=C\C(=O)O	criterion not met
CNC[C@H](O)c1ccc(O)c(O)c1 [EPINEPHRINE]	criterion not met
O=C(NCC(=O)N1CC[C@H](N[C@H]2CC[C@@](O)(c3ccc(-c4ncccn4)cn3)CC2)C1)c1cccc(C(F)(F)F)c1	criterion not met
N[C@@]1(C(=O)O)CO[C@H]2[C@H](C(=O)O)[C@H]21	criterion met
COc1c(C)cc(NC(=O)c2nn(Cc3ccc(F)cc3)c3c2CN(C(=O)c2ccc[nH]2)C[C@]3(C)C(N)=O)cc1C	criterion not met
Oc1c(CN2CCN(c3ccccn3)CC2)cc(Cl)c2cccnc12	criterion not met
Cl.Clc1ccc2nsnc2c1NC1=NCCN1 [TIZANIDINE HYDROCHLORIDE]	criterion not met
CN1CCN2c3ncccc3Cc3ccccc3C2C1 (stereo not given)	criterion not met
C[C@H](NC(=O)c1c(C(F)F)nn(C)c1Oc1cccc(C(F)(F)F)c1)c1ccc(C(=O)O)cc1	criterion not met
CC[C@H]1OC(=O)[C@H](C)[C@@H](O[C@H]2C[C@@](C)(OC)[C@@H](O)[C@H](C)O2)[C@H](C)[C@@H](O[C@@H]2O[C@H](C)C[C@H](N(C)C)[C@H]2O)[C@@]2(C)CC(C)=C(O2)[C@H](C)[C@@H](O)[C@]1(C)O	criterion not met
CC1(COc2ccc3c(c2)ncn3-c2ccc3cccc(N4CCC(N)CC4)c3n2)COC1	criterion not met
CN(C)CCCc1cc(C(=O)Nc2ccc(-c3ccncc3)cc2)ccc1O.Cl.Cl	criterion met
Cc1ccc(C(C)(O)c2nc3ccccc3s2)c(C)c1 (stereo not given)	criterion not met
O=C1COc2nccc(-c3ccccc3F)c2CN1Cc1cc(C(F)(F)F)cc(C(F)(F)F)c1	criterion met

---

Entries and their measured Population Mitotic Cells (%) follow.
System: HEK-293T
protocolText: Multiplex assay against HEK293T
Type: toxicity, cell-based
experimentalConditions: human, 48 h, 1 µM, compound concentration 1 uM, replicate 1

compound	Population Mitotic Cells (%)
CNC[C@H](O)c1ccc(O)c(O)c1 [EPINEPHRINE]	83
CN(C)c1ccnc2sc3c(=O)n(N4CCCCCC4)cnc3c12	72
Cc1ccc(F)cc1C(=O)Nc1ccc(C(=O)N2Cc3cccn3Cc3ccccc32)c(Cl)c1	77
O=S(=O)(c1ccccc1)c1cnc2c(N3CCNCC3)cccc2c1 [INTEPIRDINE]	82
N#Cc1c(N)nc(SCc2csc(-c3ccc(Cl)cc3)n2)c(C#N)c1-c1ccc(OCCO)cc1	68
Cc1ccc(-c2ccc(F)cc2COc2ccc(CCC(=O)O)cc2)cc1	82
COc1c(C)cc(NC(=O)c2nn(Cc3ccc(F)cc3)c3c2CN(C(=O)c2ccc[nH]2)C[C@]3(C)C(N)=O)cc1C	78
COc1cc(NC(=O)CCN2CCC(OC(=O)Nc3ccccc3-c3ccccc3)CC2)c(Cl)cc1CNC[C@H](O)c1ccc(O)c2[nH]c(=O)ccc12	65
CN1CCN(c2nc3cc(C(F)(F)F)ccc3n3cccc23)CC1.O=C(O)/C=C\C(=O)O.O=C(O)/C=C\C(=O)O	79
N[C@@]1(C(=O)O)CO[C@H]2[C@H](C(=O)O)[C@H]21	73
O=C(NCC(=O)N1CC[C@H](N[C@H]2CC[C@@](O)(c3ccc(-c4ncccn4)cn3)CC2)C1)c1cccc(C(F)(F)F)c1	81
Oc1c(CN2CCN(c3ccccn3)CC2)cc(Cl)c2cccnc12	70
COc1ccccc1N1CCN(CCCCNC(=O)c2ccc3ccccc3c2)CC1.Cl	79
O=C(O)c1cc2ccccc2c(Cc2c(O)c(C(=O)O)cc3ccccc23)c1O	81
CC1(COc2ccc3c(c2)ncn3-c2ccc3cccc(N4CCC(N)CC4)c3n2)COC1	70
c1cc(OCCCN2CCCCC2)ccc1CN1CCCCC1	82
C[C@H](NC(=O)c1c(C(F)F)nn(C)c1Oc1cccc(C(F)(F)F)c1)c1ccc(C(=O)O)cc1	75

Reference for the values: ChEMBL document CHEMBL5058577
